Data credit: patent US20200291018A1

Property: IC50; scope: individual compounds
Molecular target: TYRO3 (Homo sapiens)
Sequence (Q06418 41-890): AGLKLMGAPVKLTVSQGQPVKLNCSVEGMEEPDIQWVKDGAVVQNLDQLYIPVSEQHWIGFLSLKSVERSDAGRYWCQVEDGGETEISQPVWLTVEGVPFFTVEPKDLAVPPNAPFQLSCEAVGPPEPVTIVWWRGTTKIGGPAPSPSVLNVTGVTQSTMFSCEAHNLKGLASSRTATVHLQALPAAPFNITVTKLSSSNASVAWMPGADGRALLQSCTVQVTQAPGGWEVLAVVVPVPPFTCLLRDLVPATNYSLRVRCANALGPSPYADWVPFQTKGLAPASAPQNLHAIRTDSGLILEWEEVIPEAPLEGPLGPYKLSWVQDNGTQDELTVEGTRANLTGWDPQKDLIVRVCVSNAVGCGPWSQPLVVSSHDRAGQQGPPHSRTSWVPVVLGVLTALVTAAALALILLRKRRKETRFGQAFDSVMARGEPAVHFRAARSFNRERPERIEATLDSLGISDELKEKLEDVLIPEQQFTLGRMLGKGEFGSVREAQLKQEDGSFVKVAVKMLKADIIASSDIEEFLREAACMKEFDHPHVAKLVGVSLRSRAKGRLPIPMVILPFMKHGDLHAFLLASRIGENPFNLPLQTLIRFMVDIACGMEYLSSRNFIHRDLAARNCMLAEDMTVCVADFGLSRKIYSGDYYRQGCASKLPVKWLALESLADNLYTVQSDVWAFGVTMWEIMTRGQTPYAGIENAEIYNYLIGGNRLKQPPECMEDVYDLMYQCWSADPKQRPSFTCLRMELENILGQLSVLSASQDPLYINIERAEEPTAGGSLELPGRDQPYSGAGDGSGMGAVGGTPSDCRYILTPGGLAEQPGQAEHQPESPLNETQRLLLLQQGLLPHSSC

>>> df
                                   compound    result
0  CCCC(C)Nc1ncc2c(OC3CC(C)(C)N(C)C(C)(C)C3)ncc([C@H]3CC[C@H](O)CC3)c2n1 (stereo partly shown)  ≤ 100 nM
1  COC[C@H](C)Nc1ncc2c(OC3C[C@@H](C)N(C)[C@H](C)C3)ncc([C@H]3CC[C@H](O)CC3)c2n1 (stereo partly shown)  ≤ 100 nM
2  CC(=O)N1[C@@H]2CC[C@H]1C[C@H](Oc1ncc([C@H]3CC[C@H](O)CC3)c3nc(N[C@@H](C)CC(F)(F)F)ncc13)C2  ≤ 100 nM

Could you now consider this next compound?
Prompt: Returns the measured IC50 for the input compound. Input: CC(C)(C)Nc1ncc2c(OC3CCNCC3)ncc([C@H]3CC[C@H](O)CC3)c2n1
Completion: 100 to 1000 nM
